Property: emission maximum; scope: individual molecules
experiment: solvent given as SMILES; conditions: in CCO

- Molecule: "C[C@]12C(=O)NC(=O)N([C@H]3CC(O)[C@@H](CO)O3)[C@H]1[C@H]1Oc3cc4oc(=O)ccc4cc3[C@H]12 (stereo not given in full)"
  emission maximum (nm): 432
- Molecule: "COC(=O)C(Cc1ccc2oc(-c3ccc(N(C)C)cc3)nc2c1)NC(=O)OC(C)(C)C (stereo not given)"
  emission maximum (nm): 403
- Molecule: "CCN(CC)c1ccc2cc(-c3ccc(C(F)(F)F)cc3)oc(=O)c2c1"
  emission maximum (nm): 471
- Molecule: "Cc1ccccc1-c1c2ccc(=[N+]3CCOCC3)cc-2oc2cc(N3CCOCC3)ccc12"
  emission maximum (nm): 582
- Molecule: "CN(C)c1ccc(C#Cc2ccc3ccc4ccc(C#Cc5ccc(N(C)C)cc5)c5ccc2c3c45)cc1"
  emission maximum (nm): 543
- Molecule: "F[B-]1(F)N(c2ccccc2)C=Cc2cccc[n+]21"
  emission maximum (nm): 553
- Molecule: "CCOc1ccc2c(-c3nc(-c4ccccc4)no3)cc(=O)oc2c1"
  emission maximum (nm): 468
- Molecule: "Oc1ccccc1-c1nc2ccccc2s1"
  emission maximum (nm): 373
- Molecule: "COc1ccccc1-c1c2ccc(=[N+]3CCCCC3)cc-2oc2cc(N3CCCCC3)ccc12"
  emission maximum (nm): 586
- Molecule: "N#Cc1ccc(/C=C2\\OC(=O)c3cc(N)ccc32)cc1"
  emission maximum (nm): 502.77

====

experiment: solvent given as SMILES; conditions: in ClCCl
# if value of emission maximum reaches 500 nm, tag 1; if it stays below, tag 0

- Smiles notation: "c1ccc(C2c3ccc4ccc5ccccc5c4c3-c3c2ccc2ccc4ccccc4c32)cc1"
  Class assignment: 0
- Smiles notation: "Cc1ccc(/N=C2/C3=c4[nH]c5ccccc5c4=[N+](c4ccc(C)cc4)[B-](F)(F)N3c3ccccc32)cc1"
  Class assignment: 1
- Smiles notation: "CCCCCCn1c2c(c3ccccc31)-c1c(c3ccccc3n1CCCCCC)-c1c(c3ccccc3n1CCCCCC)-c1c-2c2ccccc2n1CCCCCC"
  Class assignment: 0
- Smiles notation: "CN(C)c1cc(-c2ccc(C#Cc3ccncc3)cc2)cc2ccccc12"
  Class assignment: 1
- Smiles notation: "CN(C)c1ccc(/C=C/c2cnc3ccccc3n2)cc1"
  Class assignment: 1
- Smiles notation: "CC1(C)CC(/C=C/c2ccc(-n3cccn3)cc2)=CC(=C(C#N)C#N)C1"
  Class assignment: 1
- Smiles notation: "Cc1c(C)c(-c2ccc(-c3cccnc3)cc2)c(C)c(C)c1B(c1c(C)c(C)c(-c2ccc(-c3cccnc3)cc2)c(C)c1C)c1c(C)c(C)c(-c2ccc(-c3cccnc3)cc2)c(C)c1C"
  Class assignment: 0
- Smiles notation: "COc1ccc(C2=CC(c3ccc4cc(N(C)C)ccc4c3)=[O+][B-](F)(F)O2)cc1"
  Class assignment: 1

====

Items are presented alongside their recorded emission maximum.
assay: solvent given as SMILES; conditions: in CC#N
Assay readout: emission maximum (nm)

- Smiles notation: "C(=C\\c1nc2ccccc2[nH]1)/c1ccc(/C=C/c2nc3ccccc3[nH]2)cc1"
  Units text: "nm"
  Numeric result: 427
- Smiles notation: "CN(C)c1ccc(/C=C/c2nc3ccccc3s2)cc1"
  Units text: "nm"
  Numeric result: 504
- Smiles notation: "O=C1c2cc(F)ccc2-c2cnccc21"
  Units text: "nm"
  Numeric result: 540.43
- Smiles notation: "CCCCCCc1ccc2c3c(ccc2c1)O[B-](F)(F)[N+](c1ccc([N+]2=Cc4c(ccc5cc(CCCCCC)ccc45)O[B-]2(F)F)cc1)=C3"
  Units text: "nm"
  Numeric result: 502
- Smiles notation: "Nc1ccc2c3c(cccc13)C(=O)c1ccccc1-2"
  Units text: "nm"
  Numeric result: 626.17
- Smiles notation: "C(=C\\c1ccc(Nc2ccccc2)cc1)/c1ccccc1"
  Units text: "nm"
  Numeric result: 436
- Smiles notation: "COc1cc2cc(/C=C/c3ccc(/C=C(\\C#N)C(=O)O)cc3)c(=O)oc2cc1OC"
  Units text: "nm"
  Numeric result: 483
- Smiles notation: "CCc1c(C)c2n(c1C)[B-](F)(F)[N+]1=C(NCc3ccc(OC)cc3)C(SC#N)=CC1=C2C"
  Units text: "nm"
  Numeric result: 582
- Smiles notation: "CC(C)(C)c1ccc2c(c1)c1cc(C(C)(C)C)ccc1n2-c1cccc(-c2nc(-c3cccc(-n4c5ccc(C(C)(C)C)cc5c5cc(C(C)(C)C)ccc54)c3)nc(-c3cccc(P(=O)(c4ccccc4)c4ccccc4)c3)n2)c1"
  Units text: "nm"
  Numeric result: 572.13
- Smiles notation: "Oc1ccc(/N=C/c2ccccc2Oc2ccccc2)cc1"
  Units text: "nm"
  Numeric result: 424
- Smiles notation: "CCC1(CC)c2cc(/C=C/c3cc(C#N)c(/C=C/c4ccc5c(c4)C(CC)(CC)c4cc(N6c7ccccc7Sc7ccccc76)ccc4-5)cc3C#N)ccc2-c2ccc(N3c4ccccc4Sc4ccccc43)cc21"
  Units text: "nm"
  Numeric result: 610
- Smiles notation: "Cc1nc2c(c[n+]1C)CN1C(=O)N([C@H]3O[C@@H](CO)[C@H](O)[C@@H]3O)C=CC1=N2"
  Units text: "nm"
  Numeric result: 416
- Smiles notation: "C(=C\\c1ccncn1)/c1ccc(N2CCCCC2)cc1"
  Units text: "nm"
  Numeric result: 514
- Smiles notation: "c1cc2ccc3ccc(-c4ccc(-c5nnc(-c6ccc(-c7nnc(-c8ccc(-c9ccc%10ccc%11cccc%12ccc9c%10c%11%12)s8)o7)cc6)o5)s4)c4ccc(c1)c2c34"
  Units text: "nm"
  Numeric result: 398
- Smiles notation: "COC(=O)CNC(=O)c1nc2c(N(C)C)nc(N(C)C)nc2n1Cc1ccccc1"
  Units text: "nm"
  Numeric result: 409
- Smiles notation: "COC(=O)c1ccc(-c2ccc(-c3nnc(-c4ccc(-c5nnc(-c6ccc(-c7ccc(C(=O)OC)cc7)s6)o5)cc4)o3)s2)cc1"
  Units text: "nm"
  Numeric result: 400
- Smiles notation: "CCN(CC)c1ccc2cc(/C=C/C(=O)/C=C(O)/C=C/c3cc4ccc(N(CC)CC)cc4oc3=O)c(=O)oc2c1"
  Units text: "nm"
  Numeric result: 609

====

assay: solvent given as SMILES; conditions: in CN(C)C=O
Respond with Condition met for emission maximum values of 600 nm and above, Condition not met for values below.

- Smiles notation: "O=C1Nc2ccccc2/C1=C/C(=O)c1ccc(O)cc1"
  Class assignment: "Condition not met"
- Smiles notation: "F[B-]1(F)n2cccc2C(c2ccc(-c3c4ccccc4c(-c4ccccc4)c4ccccc34)cc2)=C2C=CC=[N+]21"
  Class assignment: "Condition not met"
- Smiles notation: "CC1(C)CC(/C=C/c2cn(-c3ccccc3)nc2-c2ccccc2)=CC(=C(C#N)C#N)C1"
  Class assignment: "Condition not met"
- Smiles notation: "CCC1=C(C)C2=C(c3cc(C4=C5C(C)=C(CC)C(C)=[N+]5[B-](F)(F)n5c(C)c(CC)c(C)c54)cc(C4=C5C(C)=C(CC)C(C)=[N+]5[B-](F)(F)n5c(C)c(CC)c(C)c54)c3)c3c(C)c(CC)c(C)n3[B-](F)(F)[N+]2=C1C"
  Class assignment: "Condition not met"
- Smiles notation: "O=C1c2ccccc2-c2ccc(N3CCOCC3)c3cccc1c23"
  Class assignment: "Condition met"
- Smiles notation: "F[B-]1(F)n2cccc2C(c2c3ccccc3c(-c3ccccc3)c3ccccc23)=C2C=CC=[N+]21"
  Class assignment: "Condition not met"

====

assay: solvent given as SMILES; details: in ClCCl
Parameter: emission maximum. Scope: all listed entries.
Assay readout: emission maximum

- Compound: "CC1=[N+]2C(=Cc3c4c(cn3[B-]2(F)F)-c2nc-4c(-c3ccccc3)c3ccc([nH]3)c(-c3ccccc3)c3nc(c(-c4ccccc4)c4ccc([nH]4)c2-c2ccccc2)C=C3)C(C)C1 (centres undefined)"
  Result: "693 nm"
- Compound: "c1ccc(-n2c(-c3ccc(N(c4ccc(-c5ccc(N(c6ccc(-c7nc8c9ccccc9c9ccccc9c8n7-c7ccccc7)cc6)c6ccc(-c7nc8c9ccccc9c9ccccc9c8n7-c7ccccc7)cc6)cc5)cc4)c4ccc(-c5nc6c7ccccc7c7ccccc7c6n5-c5ccccc5)cc4)cc3)nc3c4ccccc4c4ccccc4c32)cc1"
  Result: "432 nm"
- Compound: "CCCCCCC1(CCCCCC)c2cc(-c3ccc(-c4ccc(-c5ccc(-c6ccc7c(c6)C(CCCCCC)(CCCCCC)c6cc(-n8c9ccc(-n%10c%11ccccc%11c%11ccccc%11%10)cc9c9cc(-n%10c%11ccccc%11c%11ccccc%11%10)ccc98)ccc6-7)s5)c5nsnc45)s3)ccc2-c2ccc(-n3c4ccc(-n5c6ccccc6c6ccccc65)cc4c4cc(-n5c6ccccc6c6ccccc65)ccc43)cc21"
  Result: "608 nm"
- Compound: "CCN(CC)c1ccc2c(-c3ccccc3C(=O)O)c3c([o+]c2c1)/C(=C/c1nc(-c2ccccc2)n2ccccc12)CCC3"
  Result: "746 nm"
- Compound: "O=C(c1ccc2c3c(cccc13)-c1cccc3c1C2CC=C3)c1c(Cc2ccccc2)c2ccc3cccc4c5cccc6ccc1c(c65)c2c34 (centres undefined)"
  Result: "528 nm"
- Compound: "C(=C\\c1ccc(-c2ccncc2)cc1)/c1ccc(-c2ccncc2)cc1"
  Result: "387 nm"
- Compound: "CC(C)(C)NC(=O)c1cccc2ccc3c4cc(Cl)ccc4c4ccc(Cl)cc4c3c12"
  Result: "407 nm"
- Compound: "CCCCCCCCCCCCCCCCCCOC(=O)/C=C/C1=CC2=C(c3c(C)cc(C)cc3C)c3cccn3[B-](F)(F)[N+]2=C1"
  Result: "569 nm"
- Compound: "CCN(CC)c1ccc2cc(-c3nc4c5cccc6ccc7cccc(c7c65)c4n3-c3ccc(C(C)(C)C)cc3)c(=O)oc2c1"
  Result: "519 nm"
- Compound: "O=P(c1ccccc1)(c1ccccc1)n1c2ccccc2c2cc(-n3c4ccccc4c4cc(-n5c6ccccc6c6cc(-n7c8ccccc8c8ccccc87)ccc65)ccc43)ccc21"
  Result: "383 nm"
- Compound: "COc1cccc(-c2c3ccccc3c3n2[B-](F)(F)[N+]2=Cc4c5ccccc5c(-c5cccc(OC)c5)n4[B-](F)(F)[N+]2=C3)c1"
  Result: "602 nm"
- Compound: "c1cc2ccc3[s+]c4ccc5cccc6c7cccc8c(c1)c2c3c(c87)c4c56"
  Result: "643 nm"
- Compound: "CC(=O)c1c2c(cc3ccc(N(C)C)cc13)CCC2"
  Result: "510 nm"
- Compound: "[O-][n+]1c(/C=C/c2ccccc2)nc(Nc2ccccc2)c2c1CCCC2"
  Result: "508 nm"
- Compound: "CCOC(=O)/N=c1/oc2cc(OC)cc(OC)c2cc1C#N"
  Result: "442 nm"
- Compound: "CCOC(=O)c1c(C(=O)OC)c(-c2cc3cc(OC)ccc3oc2=O)nn1-c1ccccc1"
  Result: "451 nm"
- Compound: "COc1ccc(C#Cc2c3cc4ccccc4cc3c(C#C[Si](C(C)C)(C(C)C)C(C)C)c3cc4ccccc4cc23)cc1"
  Result: "666 nm"
- Compound: "C[Si](C)(C)c1ccc2ccc3c([Si](C)(C)C)ccc4ccc1c2c43"
  Result: "381 nm"
- Compound: "[O-][n+]1c(-c2ccccc2)cc(N2CCOCC2)nc1/C=C/c1ccccc1"
  Result: "548 nm"
- Compound: "COC(=O)c1cccc2c1C#Cc1c(N)cccc1OCCCO2"
  Result: "453 nm"
- Compound: "COC(=O)c1cc(=O)n(C)c2cc(-c3ccc(N(C)C)cc3)sc12"
  Result: "554 nm"
- Compound: "Cn1nc(-c2ccc(C#N)cc2)cc1-c1ccccc1"
  Result: "348 nm"
- Compound: "CC(C)(C)c1ccc2c(c1)c1cc(C(C)(C)C)ccc1n2-c1ccc(C#Cc2ccc3c4ccc(C#Cc5ccc(C=O)cc5)cc4n(-c4ccc(C(F)(F)F)cc4)c3c2)cc1"
  Result: "422 nm"
- Compound: "c1cc(-c2ccc3sc4ccccc4c3c2)cc(-c2cc(-c3cccc(-c4ccc5sc6ccccc6c5c4)c3)ncn2)c1"
  Result: "411 nm"
- Compound: "C(=C\\c1cc(/C=C/c2ccc(-n3c4ccccc4c4ccccc43)cc2)cc(/C=C/c2ccc(-n3c4ccccc4c4ccccc43)cc2)c1)/c1ccc(-n2c3ccccc3c3ccccc32)cc1"
  Result: "419 nm"
- Compound: "N#Cc1ccc(-c2cnc3cccc(-c4ccccc4)n23)cc1"
  Result: "457 nm"
- Compound: "COc1cc2c(cc1OC)C1=C[C@H](c3ccc(Cl)cc3)C3(C(C#N)=C(C#N)N1CC2)c1cc(Br)ccc1-c1ccc(Br)cc13"
  Result: "420 nm"
- Compound: "CCCCN1c2ccccc2B(c2ccccc2C(F)(F)F)c2ccccc21"
  Result: "401 nm"
- Compound: "c1ccc2c(-c3c4ccccc4c(-c4ccc(-n5c6ccccc6c6ccccc65)cc4)c4ccccc34)cccc2c1"
  Result: "421 nm"
